test: Counterscreen Assay for Inhibitors of the ERK Signaling Pathway using a Homogeneous Screening Assay; details: AlphaScreen bead counterscreen in cell lysate, 5 h; series mostly up to 45.6 µM
Results filed as inconclusive are left out. Active and inactive are the calls of the source. Calls follow the shape of the dose curve; as a rule, active = well fitted inhibition curve with a large enough effect; inconclusive = small, poorly fitted or top-dose-only effect; inactive = no such curve, though single readings can be large or run the other way.
Possible outcomes: active, inactive

[[record]]
compound = "C=C[C@@]1(C)CC(=O)[C@@]2(O)[C@@]3(C)[C@@H](O)CCC(C)(C)[C@@H]3[C@H](OC(=O)CCN(C)C)[C@H](OC(C)=O)[C@@]2(C)O1"
class = "inactive"

[[record]]
compound = "Cc1sc2ncnc(Sc3nnnn3-c3ccc(Cl)cc3)c2c1C"
class = "inactive"

[[record]]
compound = "O=C1c2ccc(O)c(O)c2C(=O)c2c(O)ccc(O)c21"
class = "active"

[[record]]
compound = "N#CC(C#N)=c1ccc2c(c1)N1C3=C(CCCC3)CC3CCCCC31N=2 (stereo not given)"
class = "active"

[[record]]
compound = "Fc1cccc(Nc2ncnc3sc4c(c23)CCC4)c1"
class = "inactive"

